- assay: Acute toxicity (LD50, Behrens-Karber method)
- Assay type: in vivo, ICR mice
- setup.conditions: mouse, in vivo, ip, mortality during 30 days
test.readout: LD50 at 720 h (mg/kg)
Just the number please, in mg/kg, no unit attached.

The cases that follow already have their LD50 at 720 h on record.
[[record]]
compound = "CC(C)CN(C(=O)N(CCCl)N=O)[C@H]1[C@@H](OC2CCCCC2)O[C@H](CO)[C@@H]1O"
result_value = 450

[[record]]
compound = "CC(C)CO[C@H]1O[C@H](CN(Cc2cccs2)C(=O)N(CCCl)N=O)[C@H](O)[C@H](O)[C@H]1O"
result_value = 480

[[record]]
compound = "CC(C)CO[C@H]1O[C@H](CO)[C@@H](O)[C@H](O)[C@H]1N(CC(C)C)C(=O)N(CCCl)N=O"
result_value = 595

[[record]]
compound = "CC(C)CN(C[C@H]1O[C@@H](OCC2CCCO2)[C@H](O)[C@@H]1O)C(=O)N(CCCl)N=O (stereo partly shown)"
result_value = 505

[[record]]
compound = "CCCN(C(=O)N(CCCl)N=O)[C@@H]1[C@@H](O)[C@@H](OC2CCCCC2)OC[C@H]1O"
result_value = 430


State the recorded LD50 at 720 h for this entry: CCC(C)OC1OC(CO)C(O)C(N(CC(C)C)C(=O)N(CCCl)N=O)C1O (stereo not shown)
695

What do we get for CC(C)CO[C@H]1O[C@H](CN(C(=O)N(CCCl)N=O)C(C)C)[C@@H](O)[C@H](O)[C@H]1O ?
375
